Each recorded value in this set is attributed to ChEMBL document CHEMBL1128283.

System: HEL
Test Details: Inhibition of NPY1-induced ([Ca2+]) release in HEL cell was determined at 100 nM
Format: functional
Measurement Parameters: Homo sapiens, read-out: ED50 (the source's name)
Property Label: EC50 (nM)
Express it in nM; write the number only.

Known value: HEL EC50 of the substance H-YINLIYRLRY-NH2 equals 8.8

----------
System Tested: Neuropeptide Y receptor type 2 (Rattus norvegicus, UniProt Q9ERC0)
Sequence (Q9ERC0 whole entry): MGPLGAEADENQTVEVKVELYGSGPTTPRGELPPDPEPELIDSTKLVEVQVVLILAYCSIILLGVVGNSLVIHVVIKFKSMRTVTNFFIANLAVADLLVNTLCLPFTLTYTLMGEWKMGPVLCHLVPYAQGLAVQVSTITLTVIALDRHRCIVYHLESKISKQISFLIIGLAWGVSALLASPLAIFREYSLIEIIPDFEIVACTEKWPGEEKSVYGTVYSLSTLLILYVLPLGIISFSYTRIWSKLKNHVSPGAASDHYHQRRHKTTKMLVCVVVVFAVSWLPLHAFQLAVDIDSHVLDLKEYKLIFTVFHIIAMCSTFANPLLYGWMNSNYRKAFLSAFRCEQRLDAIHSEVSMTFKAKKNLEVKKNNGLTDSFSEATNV
Test Details: 50% displacement of specifically bound [3H]NPY2 from rat brain membranes.
Format: cell membranes, Membrane
pIC50: −log10 of the molar value.
Response key: true (1) means pIC50 >= 7; false (0) means pIC50 < 7.

Ask: Dear colleague, could you confirm whether H-LIYRLRY-NH2 has pIC50 at or above 7?
Result: false (0)

Ask: Dear colleague, could you confirm whether H-YINPIYRLRY-NH2 has pIC50 at or above 7?
Result: true (1)

Ask: Dear colleague, could you confirm whether H-YINLIYRLRY-NH2 has pIC50 at or above 7?
Result: true (1)

Ask: Dear colleague, could you confirm whether H-YINLITRLY-NH2 has pIC50 at or above 7?
Result: false (0)

Ask: Dear colleague, could you confirm whether H-HYINLIYRLRY-NH2 has pIC50 at or above 7?
Result: true (1)

Ask: Dear colleague, could you confirm whether H-RHYINLITRQRY-NH2 has pIC50 at or above 7?
Result: false (0)

Ask: Dear colleague, could you confirm whether H-YINLITRQRY-NH2 has pIC50 at or above 7?
Result: false (0)

Ask: Dear colleague, could you confirm whether H-RHYINLIYRLRY-NH2 has pIC50 at or above 7?
Result: true (1)

Ask: Dear colleague, could you confirm whether H-NLIYRLRY-NH2 has pIC50 at or above 7?
Result: false (0)

Ask: Dear colleague, could you confirm whether H-INLIYRLRY-NH2 has pIC50 at or above 7?
Result: true (1)

Ask: Dear colleague, could you confirm whether H-IYRLRY-NH2 has pIC50 at or above 7?
Result: false (0)

Ask: Dear colleague, could you confirm whether H-INPIYRLRY-NH2 has pIC50 at or above 7?
Result: false (0)
